Where do these numbers come from? They come from the RNAGym collection of RNA variant scans (doi:10.1126/science.aae0568).

B1: tRNA (parent)
chain: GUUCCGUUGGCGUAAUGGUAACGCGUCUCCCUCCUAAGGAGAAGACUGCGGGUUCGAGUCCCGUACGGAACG

Variants of: B1
PROTOCOL: yeast fitness relative to wild type (ratio to wild type); higher = fitter; tRNA-Arg(CCU), competitive growth, 37 C, YPD
Fewer inactive variants are shown than the library holds.
READOUT_TYPE: yeast fitness
The answer should be written as a number, with no unit following it.

What value of measured yeast fitness is listed for U3G U8C C62U ?
0.525

What value of measured yeast fitness is listed for C11U U64C ?
0.879

What value of measured yeast fitness is listed for U16G U26A C34U G50A A69U ?
0.551

What value of measured yeast fitness is listed for C5U A40G G56A A69C ?
0.575

What value of measured yeast fitness is listed for C4G G17C A20U A37C ?
0.717

What value of measured yeast fitness is listed for U13G U26A A45C A69C ?
0.577

What value of measured yeast fitness is listed for A21C C33U C55A ?
0.533

What value of measured yeast fitness is listed for U2C G50C ?
0.733
